biological target: hNotch1ICD (Homo sapiens, UniProt P46531); construct: pLV[Tet]-Puro-TRE3G>Notch1-ICD; expressed in transfected cells; host or cells: 293A cells; test: Notch1 Reporter Assay (Dox-inducible Notch1-ICD, CSL-responsive luciferase in 293A cells); type: cell-based; conditions: 293A cells, 24 h, luciferase normalized to cell viability; read-out: Notch1 Reporter Assay IC50
Sequence (P46531 1754-2555 limits assumed): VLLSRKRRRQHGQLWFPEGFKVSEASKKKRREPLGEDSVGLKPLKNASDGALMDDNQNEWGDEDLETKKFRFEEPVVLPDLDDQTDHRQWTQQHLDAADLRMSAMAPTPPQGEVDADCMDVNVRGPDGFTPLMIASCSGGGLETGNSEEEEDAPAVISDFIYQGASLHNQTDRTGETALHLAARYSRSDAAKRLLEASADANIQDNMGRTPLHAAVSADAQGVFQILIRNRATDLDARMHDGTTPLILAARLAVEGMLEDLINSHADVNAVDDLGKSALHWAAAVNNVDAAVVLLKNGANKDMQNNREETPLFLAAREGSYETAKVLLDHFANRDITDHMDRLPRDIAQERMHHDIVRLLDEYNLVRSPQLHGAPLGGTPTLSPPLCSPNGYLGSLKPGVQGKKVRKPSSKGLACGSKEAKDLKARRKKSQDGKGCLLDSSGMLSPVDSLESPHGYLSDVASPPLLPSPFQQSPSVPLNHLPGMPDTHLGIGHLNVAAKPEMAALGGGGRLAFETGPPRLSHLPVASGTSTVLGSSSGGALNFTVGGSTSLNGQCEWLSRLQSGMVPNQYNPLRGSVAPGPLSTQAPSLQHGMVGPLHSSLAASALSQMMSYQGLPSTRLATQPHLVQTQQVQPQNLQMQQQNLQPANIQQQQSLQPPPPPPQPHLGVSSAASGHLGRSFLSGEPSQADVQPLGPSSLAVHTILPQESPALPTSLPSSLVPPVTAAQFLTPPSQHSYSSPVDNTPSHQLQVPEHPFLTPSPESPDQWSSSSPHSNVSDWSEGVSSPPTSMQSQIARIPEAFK
pIC50: −log10 of the molar value. Structures can show the parent of a compound that is named as a salt.
Output TRUE for records whose pIC50 is lower than 5, FALSE for records at or above 5.

Worked set:
[[record]]
compound = "CC(C)Cn1c(=O)c(C(=O)Nc2cccc(F)c2)c(O)c2c(N3CCNCC3)cccc21 [SSTN-587_HCl salt]"
label = "FALSE"

[[record]]
compound = "CC(C)Cn1c(=O)c(C(=O)Nc2cc(F)ccn2)c(O)c2ccccc21"
label = "TRUE"

[[record]]
compound = "CC(C)Cn1c(=O)c(C(=O)Nc2ccc(N3CCN(C)CC3)cc2)c(O)c2ccccc21 [569(02)]"
label = "FALSE"

[[record]]
compound = "CC(C)Cn1c(=O)c(C(=O)Nc2ccc(F)c(N3CCN(C)CC3)c2)c(O)c2ccccc21 [584(02)]"
label = "FALSE"

[[record]]
compound = "CC(C)Cn1c(=O)c(C(=O)Nc2ccc(F)cc2N2CCN(C)CC2)c(O)c2ccccc21 [570(02)]"
label = "FALSE"


Query: I'd appreciate it if you could check whether CC(C)Cn1c(=O)c(C(=O)Nc2ccccn2)c(O)c2ccccc21 has pIC50 smaller than 5.
Reply: TRUE
